target: Luciferin 4-monooxygenase (Photinus pyralis) (UniProt P08659)
Sequence (P08659 whole entry, looked up): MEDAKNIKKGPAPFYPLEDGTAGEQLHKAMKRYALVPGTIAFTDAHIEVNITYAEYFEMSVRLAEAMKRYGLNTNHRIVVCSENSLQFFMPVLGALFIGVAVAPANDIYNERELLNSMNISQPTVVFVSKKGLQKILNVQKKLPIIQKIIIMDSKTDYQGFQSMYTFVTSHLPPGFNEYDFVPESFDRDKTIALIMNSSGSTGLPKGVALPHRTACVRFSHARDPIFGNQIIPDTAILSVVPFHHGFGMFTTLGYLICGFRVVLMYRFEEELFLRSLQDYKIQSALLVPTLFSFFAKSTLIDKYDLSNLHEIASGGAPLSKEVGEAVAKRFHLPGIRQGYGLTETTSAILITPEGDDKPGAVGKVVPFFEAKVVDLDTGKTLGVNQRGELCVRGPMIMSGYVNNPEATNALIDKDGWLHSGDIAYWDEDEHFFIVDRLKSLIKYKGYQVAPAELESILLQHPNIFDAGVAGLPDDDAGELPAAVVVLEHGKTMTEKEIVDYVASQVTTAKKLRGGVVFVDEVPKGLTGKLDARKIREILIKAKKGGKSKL
test details: qHTS profiling assay for firefly luciferase inhibitor/activator using purifed enzyme and Km concentrations of substrates (counterscreen for miR-21 project); also: nearly all actives have a fitted effect of over 55% in size
particulars: purified FLuc, luminescence inhibition; series mostly up to 57.5 µM
Source text: MLPCN Grant: 1 R21 NS059478-01 (miR-21 grant) Assay Provider: NCGC NCGC Assay Overview: Firefly (Photinus pyralis) luciferase is one of the most commonly used transcriptional reporters for a number of reasons. […] Although light produced in a bioluminescence reaction is of lower intensity than that produced during fluorescence emission, this is offset by little to no background light inherent to luminescent assays. […]
About 25,000 (6.9%) of roughly 360,000 compounds were called active. About 9% were inconclusive and are not listed. Calls follow the shape of the dose curve; as a rule, active = well fitted inhibition curve with a large enough effect; inconclusive = small, poorly fitted or top-dose-only effect; inactive = flat fitted curve, though single readings scatter. Shown is part of a subset that was picked to be rich in actives.
Log the outcome using a class from active, inactive

See these solved cases before continuing.
O=C(Nc1ncccc1O)c1ccc(S(=O)(=O)N2CCCC2)cc1; inactive
O=C(Nc1ncccc1O)c1ccc(C(=O)c2ccccc2)cc1; active

Outcome logged for COC(=O)c1ccccc1NC(=O)C(Cc1ccccc1)N1Cc2ccccc2C1=O (stereo not given) in this assay:
inactive

Outcome logged for Cc1ccc(N2CC(C(=O)Nc3cc(Cl)ccc3-n3cncn3)CC2=O)cc1 (stereo not given) in this assay:
inactive

Outcome logged for COc1ccc(CNc2nc(-c3ccc(Cl)cc3)nn2S(=O)(=O)c2ccc(C)cc2)cc1 in this assay:
inactive

----------
target: Luciferin 4-monooxygenase (Photinus pyralis) (UniProt P08659)
test details: qHTS profiling assay for firefly luciferase inhibitor/activator using purifed enzyme and Km concentrations of substrates (counterscreen for miR-21 project); also: nearly all actives have a fitted effect of over 55% in size
particulars: purified FLuc, luminescence inhibition; series mostly up to 57.5 µM
About 25,000 (6.9%) of roughly 360,000 compounds were called active. Roughly 9% stayed inconclusive and do not appear here. The call rests on the fitted dose curve; in most records, active means well fitted inhibition curve with a large enough effect; inconclusive means small, poorly fitted or top-dose-only effect; inactive means flat fitted curve, though single readings scatter. This is one part of a sample in which actives are shown more often than they occur.
Log the outcome using a class from active, inactive

See these solved cases before continuing.
CCOC(=O)c1c(NC(=O)Cc2coc3ccc(CC)cc23)sc2c1CCC2; inactive
CCN(CCCNC(=O)c1cc(Nc2ccc(OC)cc2)nc2ccccc12)c1cccc(C)c1; inactive
COc1ccc(-c2nn(-c3ccccc3)cc2/C=C2/SC(=S)N(CCCC(=O)O)C2=O)c(C)c1; inactive
COc1ccc(/C=C2/SC(=O)N(CCCCCC(=O)Nc3ccccc3C(=O)O)C2=S)cc1; active

Consider the additional compound presented here.
Outcome logged for CCOc1ccc(NC(=O)CN(C)C(=O)Cn2c(=O)cnc3ccccc32)cc1OCC in this assay:
inactive

----------
target: Luciferin 4-monooxygenase (Photinus pyralis)
test details: qHTS profiling assay for firefly luciferase inhibitor/activator using purifed enzyme and Km concentrations of substrates (counterscreen for miR-21 project); also: nearly all actives have a fitted effect of over 55% in size
particulars: purified FLuc, luminescence inhibition; series mostly up to 57.5 µM
Among all 360,000 compounds or so, about 25,000 (6.9%) were called active. About 9% were inconclusive and are not listed. Calls come from the whole dose curve; as a rule, active = well fitted inhibition curve with a large enough effect; inconclusive = small, poorly fitted or top-dose-only effect; inactive = flat fitted curve, though single readings scatter. The sample holds actives, similar compounds and a random draw of the others, so the mix is not that of the screen.
Log the outcome using a class from active, inactive

See these solved cases before continuing.
CCN(CC)C(=O)CS(=O)CC(=O)Nc1cc(OCCOC)c(Cl)cc1Cl (stereo not given); inactive
Cc1cc2ncn(CCCCOc3ccccc3)c2cc1C; inactive

Consider the additional molecule presented here.
Outcome logged for COc1cc(OC)c(NC(=O)c2cnc(N3CCCC3)nc2C)cc1Cl in this assay:
inactive

----------
target: Luciferin 4-monooxygenase (Photinus pyralis) (UniProt P08659)
test details: qHTS profiling assay for firefly luciferase inhibitor/activator using purifed enzyme and Km concentrations of substrates (counterscreen for miR-21 project); also: nearly all actives have a fitted effect of over 55% in size
particulars: purified FLuc, luminescence inhibition; series mostly up to 57.5 µM
Out of some 360,000 compounds screened, about 25,000 (6.9%) were called active. Roughly 9% stayed inconclusive and do not appear here. Calls come from the whole dose curve; as a rule, active = well fitted inhibition curve with a large enough effect; inconclusive = small, poorly fitted or top-dose-only effect; inactive = flat fitted curve, though single readings scatter. The list comes from a sample in which actives are over-represented; it also holds close analogues and randomly drawn compounds.
Log the outcome using a class from y = active, n = inactive

O=C(N/N=C/c1ccsc1)c1cc(O)cc(O)c1; y
COc1ccc(OC)c(-c2noc(N3CCN(c4cc(Cl)ccc4C)CC3)n2)c1; n
CC(=O)N/N=C(\C)c1ccc(Br)cc1Br; n
CCOc1ccc(N(Cc2ccccc2)C(=O)c2nc(SCC)ncc2Cl)cc1; n
CCOC(=O)CCCNC(=O)COC(=O)/C=C/c1ccc2c(c1)OCO2; n
CCOC(=O)N/N=C/c1cccnc1; n

Outcome logged for O=C(/C=C/c1cn(CC(O)CN2CCc3ccccc32)c2ccccc12)c1ccc(Br)cc1 (stereo not drawn) in this assay:
n

Outcome logged for CC1(C)NC(=O)N(CC(=O)N2CCN(S(=O)(=O)c3ccccc3F)CC2)C1=O in this assay:
n

Outcome logged for Cc1sc2nc(CC(N)=O)[nH]c(=O)c2c1-c1ccccc1 in this assay:
n

Outcome logged for CC(=O)Nc1ccc(NC(=O)CCN2C(=O)C3CC=CCC3C2=O)cc1 (stereo not drawn) in this assay:
n

Outcome logged for O=C(Cn1cnc2c(oc3ccccc32)c1=O)Nc1ccc(OC(F)(F)F)cc1 in this assay:
n

Outcome logged for COc1ccccc1NC(=O)c1cc(C2CC2)nc2c1c(C)nn2-c1ccc(C)cc1 in this assay:
n

----------
target: Luciferin 4-monooxygenase (Photinus pyralis)
test details: qHTS profiling assay for firefly luciferase inhibitor/activator using purifed enzyme and Km concentrations of substrates (counterscreen for miR-21 project); also: nearly all actives have a fitted effect of over 55% in size
particulars: purified FLuc, luminescence inhibition; series mostly up to 57.5 µM
Among all 360,000 compounds or so, about 25,000 (6.9%) were called active. Roughly 9% stayed inconclusive and do not appear here. Calls come from the whole dose curve; as a rule, active = well fitted inhibition curve with a large enough effect; inconclusive = small, poorly fitted or top-dose-only effect; inactive = flat fitted curve, though single readings scatter. Shown is part of a subset that was picked to be rich in actives.
Log the outcome using a class from true = active, false = inactive

See these solved cases before continuing.
CCN1C(=O)c2ccccc2S(=O)c2ccc(C(=O)NCc3ccc(F)cc3)cc21 (stereo unspecified); false
Cc1ccc(C)c(N2CCN(C(=O)Cn3ncc4c(=O)oc5ccc(C)cc5c43)CC2)c1; false

Consider the additional molecule presented here.
Outcome logged for CC(C)(C)c1ccc(C(=O)NCC(c2ccco2)S(=O)(=O)c2ccc(F)cc2)cc1 (stereo unspecified) in this assay:
false

----------
target: Luciferin 4-monooxygenase (Photinus pyralis)
test details: qHTS profiling assay for firefly luciferase inhibitor/activator using purifed enzyme and Km concentrations of substrates (counterscreen for miR-21 project); also: nearly all actives have a fitted effect of over 55% in size
particulars: purified FLuc, luminescence inhibition; series mostly up to 57.5 µM
About 25,000 (6.9%) of roughly 360,000 compounds were called active. Another 9% or so got no clear call; they are omitted. Calls come from the whole dose curve; as a rule, active = well fitted inhibition curve with a large enough effect; inconclusive = small, poorly fitted or top-dose-only effect; inactive = flat fitted curve, though single readings scatter. The sample holds actives, similar compounds and a random draw of the others, so the mix is not that of the screen.
Log the outcome using a class from active, inactive

See these solved cases before continuing.
C=C(C)CNc1cc(S(=O)(=O)N2CCOCC2)ccc1Oc1ccccc1; inactive
O=c1n(Cc2cccc(C(F)(F)F)c2)c2ccccc2c2nc(-c3ccccc3)nn12; inactive
COC(=O)c1scc(-c2ccccc2)c1S(=O)(=O)Nc1ccccc1; inactive

Outcome logged for CSCc1ccc(C(=O)Nc2cc(C)cc(C)c2)cc1 in this assay:
active

Outcome logged for CSc1ccc(CCNC(=O)CS(=O)(=O)Cc2nc(-c3ccccc3F)oc2C)cc1 in this assay:
inactive

Outcome logged for O=C(CSc1nc2ccccc2c(=O)n1CCCO)NC1CC1 in this assay:
inactive

Outcome logged for Cc1cc(C)cc(NC(=O)CSc2ccccc2)c1 in this assay:
inactive

Outcome logged for CC(=O)Nc1ccccc1NC(=O)c1cc(C)cc(C)c1 in this assay:
inactive

Outcome logged for CCOC(=O)c1ccc(-c2ccc(C(=O)Nc3cccnc3)o2)cc1 in this assay:
active

Outcome logged for CCOC(=O)c1ccc(-c2ccc(/C=C(\C#N)C(=O)Nc3ccc(C)cc3)o2)cc1 in this assay:
inactive

Outcome logged for Cc1ccc(Cn2c(=O)n(CCCC(=O)NCc3ccccc3Cl)c(=O)c3ccccc32)cc1 in this assay:
inactive

----------
target: Luciferin 4-monooxygenase (Photinus pyralis) (UniProt P08659)
test details: qHTS profiling assay for firefly luciferase inhibitor/activator using purifed enzyme and Km concentrations of substrates (counterscreen for miR-21 project); also: nearly all actives have a fitted effect of over 55% in size
particulars: purified FLuc, luminescence inhibition; series mostly up to 57.5 µM
About 25,000 (6.9%) of roughly 360,000 compounds were called active. Inconclusive results (about 9%) are left out. Calls follow the shape of the dose curve; as a rule, active = well fitted inhibition curve with a large enough effect; inconclusive = small, poorly fitted or top-dose-only effect; inactive = flat fitted curve, though single readings scatter. Many of the other results were omitted from the sample, so actives are more common in it than they were.
Log the outcome using a class from active, inactive

See these solved cases before continuing.
Cc1cnc(NC(=O)Cn2cnc3c2c(=O)n(C)c(=O)n3C)s1; inactive
CCCOc1ccc(C(=O)NCCc2ccccc2)cc1; active
CC(C)c1ccc(C(=O)NCCCc2ccccc2)cc1; active
Cc1ccc(Cl)cc1NC(=O)CSc1nccn1C; inactive
O=C(CCNC(=O)c1ccc(Br)cc1)NCCCc1ccccc1; inactive
CC(C)(C)c1nnc(N/N=C/c2ccc(O)cc2)n(N)c1=O; active

Outcome logged for N#Cc1ccc(-c2nc3cc(C#N)c(C#N)cc3nc2-c2ccccc2)cc1C#N in this assay:
inactive

Outcome logged for COc1ccc(OCCCC(=O)NCCc2ccccc2)cc1 in this assay:
inactive

Outcome logged for CCc1nn(CCCC(=O)NCc2ccccc2OC)c(=O)c2cc3occc3n12 in this assay:
inactive

Outcome logged for Cc1c(C(=O)NCCCc2ccccc2)cccc1[N+](=O)[O-] in this assay:
inactive

Outcome logged for Cc1cnc(NC(=O)CSc2nnc(-c3ccccc3)n2Cc2ccccc2)s1 in this assay:
inactive

Outcome logged for O=C(NCCOc1ccccc1)c1ccccc1 in this assay:
active
